system: MCF7; assay: NCI tumour cell line growth inhibition, 48 h
The source made the active and inactive calls. Cut-off read from the data, not from the text of the source: active = GI50 up to about 1.1 µM and inactive = higher.
Consider the following compounds and their measured GI50 readings.

Use the examples below as a reference point.
Cc1ccc(C(=O)c2[nH]c(Nc3ccc(Cl)cc3)c(C(=S)Nc3ccccc3)c2N)cc1    12.5 µM (inactive)
CC1NC(C(=O)O)Cc2cc(O)c(O)cc21 (configuration not stated)    > 100 µM (inactive)
COc1ccc(CCN2CCc3c(C)c(C#N)c4nc5ccccc5n4c32)cc1OC    18 µM (inactive)

Item under review: O=C1CSC(c2ccccc2)N1c1ccc(-c2ccc(-n3c(-c4ccccc4)nc4ccccc4c3=O)cc2)cc1 (configuration not stated) . Reported GI50? 35.1 µM (inactive)

Item under review: CCN(CC)CCCNc1ccc([N+](=O)[O-])c2nc3ccccc3c(N)c12 . Reported GI50? 0.402 µM (active)

Item under review: CCCCn1c2c(n(CCCC)c1=S)-c1c(n(CCCC)c(=S)n1CCCC)SSSS2 . Reported GI50? 2.68 µM (inactive)

Item under review: Cc1ccc(N2C(=O)CC(=O)N(NC(=O)C(C)Oc3ccccc3C)C2=S)cc1 (configuration not stated) . Reported GI50? > 100 µM (inactive)

Item under review: COc1ccc(/N=N/c2c(-c3c(OC)cc4occc4c3OC)[nH]c(=O)c(C#N)c2C)cc1 . Reported GI50? > 100 µM (inactive)

Item under review: CC(=O)Oc1ccccc1C(=O)O . Reported GI50? > 100 µM (inactive)

Item under review: CC(=O)Oc1ccn2nc(C)c(Br)c2c1 . Reported GI50? 47.8 µM (inactive)

Item under review: c1ccc(C2=NN(c3nc4ccccc4s3)C3(CCCCC3)N2)nc1 . Reported GI50? 21.6 µM (inactive)

Item under review: COc1ccc(/C=N/n2c(=O)[nH]c3ccccc3c2=O)cc1 . Reported GI50? > 100 µM (inactive)

Item under review: COC1=C2C=[N+](C)C3C(=C2C=CC1OC)Cc1cc2c(cc13)OCO2 (configuration not stated) . Reported GI50? 9.77 µM (inactive)
